- Test system: RXRa DBDmut IVT, anti-RXR (DBD mutation: RXRa K156A/R161A, NR concentration 90 nM)
- testSummary: PBM binding z-score (relative to random genomic background probes); higher = stronger binding; sequences stand for … in GC…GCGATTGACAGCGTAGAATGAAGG
Note to self: values exactly at 1 are true (1). So PBM binding z-score at or above 1 is true (1), below is false (0).

| sequenceChain | assignedClass |
| --- | --- |
| AGAATGAGGTTACCAAAGTTCAGGGAAACGCTTG | true (1) |
| ATATGTAGGTTACATCCGGGTCATCCAGGCTATG | false (0) |
| CGTCCGAGGTCAAGGTCAGTGAAAGAGACTCGAA | true (1) |
| TAGCCGAGGTCATTCAGGGGCCAGTATAGAAAGC | true (1) |
| CAAACGAGGTCAAAGGTCAAAGTCGAGCCAACCA | true (1) |
| AGTCAAAGTTGAGGACGAGGTAACGTAAAGCACG | false (0) |
| ACTTAAGGGTCAACGAGGTTATAGCACGCGTATA | true (1) |
| GCTGCTAGGTCAACTGATGGTCAACTAAAGCTCG | true (1) |
| GGAACGAGGTCAAGTTGATAGCAGAGTTTGATGG | true (1) |
| TAGCCTAGGTCATGGGCCAGTGTACCACGCGAAC | false (0) |
| ATATGTAGGTTAAAGGTCATTCAGGTTGGTTCGC | true (1) |
| GATACAGGGTCAAGGTCAGAGTACGCGTATTGAT | true (1) |
| ATCGAAAGGTCATGAGGTGAGTATACAGAAAGGC | true (1) |
| TAGCCTAGGTCATTCAGGGGCCACTATAGAAAGC | true (1) |
| TAGCCTAGGTCACATCGGGCCAGTATACGCTATA | false (0) |
| CGTCCAAGGTCAAAGGTCAATGAAGAGATGACGG | true (1) |
| TGTCAAAGTTCAAAGGTTACGTAAGTATCCACAC | true (1) |
| GCTTACGGGTCAAAGGTCATAGCATGAATAGAAT | true (1) |
| CGTCCAAGGTCATATGAGGTCAGTGAAGACAGAT | true (1) |
| CGAACTAGGTCAAAGGACATTGAAAGGCGACGTA | true (1) |
| TAGCCTAGGTCATGCGGCCCAGTATAGTGTCGGC | false (0) |
| TACCCTAGGTCATTCAGGGGCCAGTATAGAAAGC | true (1) |
| CATACAGGGTCGGCTAGGCCAGAGTAGGGACGGC | false (0) |
| CGAACTAGGTCTAAGGACAGTGAAAGGCGACGTA | false (0) |
| CGTCAAAGGTCAAAGGTCAGTGAAGAGATGACGG | true (1) |
| CGAACGAGGTCATCCAGGACAGTGAATACATTGA | true (1) |
| CGAACTAGGTCAAGGGACAGTGAAAGGCGACGTA | false (0) |
| CCTACTGGACCAAGGTCATTGATCAGTCAAAGCA | true (1) |
| ACTCGGAGGACAAAGGTCAGGGCTACGCCAGTGA | false (0) |
| TAGCCTAGGTCATACAGGGGCCAGTATAGAAAGC | true (1) |
| CCGAGTAGGTTACTAGGGGGCATTCAGTGCGAAT | true (1) |
| ATCGAAAGGTCGACGAGGTGAGTAAACACCGTTT | false (0) |

Source: the supplement of paper PMC6555819
